# EXPERIMENTAL_TARGET: CYP2D6 (Homo sapiens (Human))
# Sequence (P10635 whole entry): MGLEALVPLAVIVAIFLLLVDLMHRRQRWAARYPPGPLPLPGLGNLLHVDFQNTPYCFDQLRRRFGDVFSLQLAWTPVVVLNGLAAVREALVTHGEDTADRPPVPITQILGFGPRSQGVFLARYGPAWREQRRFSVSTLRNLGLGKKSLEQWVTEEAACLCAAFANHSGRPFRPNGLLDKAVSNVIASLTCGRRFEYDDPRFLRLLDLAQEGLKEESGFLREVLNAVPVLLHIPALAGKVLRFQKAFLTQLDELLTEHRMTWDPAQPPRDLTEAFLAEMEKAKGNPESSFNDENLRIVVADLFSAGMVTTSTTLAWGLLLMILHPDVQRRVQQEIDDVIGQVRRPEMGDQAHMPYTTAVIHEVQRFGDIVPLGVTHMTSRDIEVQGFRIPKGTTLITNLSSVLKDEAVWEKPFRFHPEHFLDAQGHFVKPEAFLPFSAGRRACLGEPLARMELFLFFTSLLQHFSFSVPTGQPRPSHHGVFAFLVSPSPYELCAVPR
# METHOD_NOTES: CYP450 inhibition at 10 μM, CYP2D6
# Assay type: in vitro ADME
# TEST_CONTEXT: read-out: CYP 450 % INH @ 10 μM
Reported inhibition at 10 µM values follow for various compounds

Check out these entries, answers already filled in.
> print(dat)
                                   compound  value.reported
1  CO[C@H]1CCN(C(=O)c2nc(N[C@@H](C)c3cccnc3)nc3ccsc23)C1 [Example Z18]             44%
2  C[C@H](Nc1nc(C(=O)N2CC[C@@H](F)C2)c2sccc2n1)c1ccccn1 [Example Z52]              0%
3  C[C@H](Nc1nc(C(=O)N2CC[C@@H](O)C2)c2sccc2n1)c1ccccn1 [Example Z59]             15%
4  Cc1cncc(CNc2nc(C(=O)N3CCC3)c3sccc3n2)c1 [Example Z55]             19%
5  C[C@H](Nc1nc(C(=O)N2CC[C@H](F)C2)c2sccc2n1)c1ccccn1 [Example Z53]              0%
6  C[C@H](Nc1nc(C(=O)N2CC(F)(F)C2)c2sccc2n1)c1cccnc1 [Example Z32]              7%

Please find the next compound below.
# return inhibition at 10 µM of C[C@H](Nc1nc(C(=O)N2CCC2)c2sccc2n1)c1cccnc1 [Example Z2] (system: CYP2D6 (Homo sapiens (Human)))
38%
